target: Human immunodeficiency virus type 1 integrase (Human immunodeficiency virus 1, UniProt Q7ZJM1); test: Inhibition of HIV1 integrase 3'-processing activity expressed in Escherichia coli by PAGE
Sequence (Q7ZJM1 whole entry): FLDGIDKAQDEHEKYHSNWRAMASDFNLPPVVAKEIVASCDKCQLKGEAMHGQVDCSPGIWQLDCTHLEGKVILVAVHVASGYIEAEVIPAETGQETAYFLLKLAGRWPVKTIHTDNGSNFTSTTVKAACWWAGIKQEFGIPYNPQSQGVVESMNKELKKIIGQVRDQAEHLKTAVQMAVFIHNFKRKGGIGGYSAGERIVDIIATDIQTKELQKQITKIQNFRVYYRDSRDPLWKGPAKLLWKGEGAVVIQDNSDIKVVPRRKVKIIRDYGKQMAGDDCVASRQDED
Recorded metric: IC50

Example entries begin here.
{"Molecule": "C[C@@H](c1ccc2ccccc2c1)N1Cc2ccc(O)c(O)c2C1=O", "IC50": "> 111 µM"}
{"Molecule": "C[C@@H](C1CCc2ccccc21)N1Cc2ccc(O)c(O)c2C1=O (stereo partly specified)", "IC50": "> 333 µM"}
{"Molecule": "C[C@H](c1ccc2ccccc2c1)N1Cc2ccc(O)c(O)c2C1=O", "IC50": "> 111 µM"}
{"Molecule": "C[C@H](c1ccccc1)N1Cc2ccc(O)c(O)c2C1=O", "IC50": "> 333 µM"}
{"Molecule": "O=C1c2ccc(O)c(O)c2C(=O)N1[C@@H]1CCCc2ccccc21", "IC50": "> 333 µM"}

The record that follows has no IC50 shown yet.
Qu. Annotate the molecule C[C@@H](c1ccccc1)N1Cc2ccc(O)c(O)c2C1=O with its measured IC50.
Ans. > 333 µM

---

target: Human immunodeficiency virus type 1 integrase (Human immunodeficiency virus 1, UniProt Q7ZJM1); experiment: Inhibition of HIV1 integrase 3'-processing activity expressed in Escherichia coli by PAGE
Recorded metric: IC50 (µM)

P. O=C1c2ccc(O)c(O)c2C(=O)N1[C@H]1CCCc2ccccc21
Q. O=C1c2ccc(O)c(O)c2C(=O)N1[C@@H]1CCc2ccccc21
Qu. Select the item with the higher value of IC50 from the options P and Q listed. Please indicate the selected item by its label.
Ans. Q
(Q: 290 µM, P: 111 µM)
